system: M. smegmatis ATCC607; assay: In-vitro anti-bacterial activity against strain M. smegmatis ATCC607; details: 90% inhibitory concentration for bacterial growth; 48 hours, 37° C., Alamar Blue fluorescence
measured.parameter: IC90 MSM 1 ATCC607 (µg/mL)
# output: bare number, implied unit µg/mL

Fill in the blank: the reported IC90 MSM 1 ATCC607 of CN1CCCN(CCCCC(O)(c2ccc3ccccc3c2)C(c2ccccc2)c2cc3cc(Br)ccc3[nH]c2=O)CC1 (single isomer, unassigned) [Compound 50] is ____.
2.3

Would you kindly repeat that for COc1nc2ccc(Br)cc2cc1C(c1ccccc1)C(O)(CCCCN(C)C(=N)N)c1ccccc1 (single isomer, unassigned) [Compound 2] ?
1.8

Would you kindly repeat that for COc1nc2ccc(Br)cc2cc1C(c1ccccc1)C(O)(CCCCN1CC2CC1CN2C)c1ccc2ccccc2c1 (single isomer, unassigned) [Compound 57] ?
2.1

Would you kindly repeat that for COc1nc2ccc(Br)cc2cc1C(c1ccccc1)C(O)(CCCCN1CC2CC1CN2Cc1ccccc1)c1ccc2ccccc2c1 (single isomer, unassigned) [Compound 21] ?
5.8

Would you kindly repeat that for COc1nc2ccc(Br)cc2cc1C(c1ccccc1)C(O)(CCCCN1CCCN(C)CC1)c1ccc2ccccc2c1 (centres unmarked) [Compound 35a] ?
0.9

Would you kindly repeat that for COc1nc2ccc(Br)cc2cc1C(c1ccccc1)C(O)(CCCCN1CCCN(C)CC1)c1ccc2ccccc2c1 (centres unmarked) [Compound 34b] ?
2.1

Would you kindly repeat that for COc1nc2ccccc2cc1C(c1ccccc1)C(O)(CCCCN1CC2CC1CN2)c1ccc2ccccc2c1 (single isomer, unassigned) [Compound 19] ?
1.6

Would you kindly repeat that for COc1nc2ccc(Br)cc2cc1C(c1ccccc1)C(O)(CCCCN1CC2CC1CN2Cc1ccccc1)c1ccccc1 (single isomer, unassigned) [Compound 49] ?
2.1

====

test system: Staphylococcus aureus (ATCC29213); assay: Microtitre plate IC90 determination against non-mycobacterial strains: S. aureus; format: cell-based; conditions: Staphylococcus aureus, ATCC29213, 24 h, 90% inhibitory concentration for bacterial growth, 37° C., resazurin fluorescence, read-out: IC90 STA 1 B29213
Kindly supply the reported IC90 values for the records listed here.
# output: bare number, implied unit µg/mL

Fill in the blank: the reported IC90 of COc1nc2ccc(Br)cc2cc1C(c1ccccc1)C(O)(CCCCN1CCN(C(C)=O)CC1)c1ccccc1 (single isomer, unassigned) is ____.
61.7

Would you kindly repeat that for COc1nc2ccc(Br)cc2cc1C(c1ccccc1)C(O)(CCCCN1CC2CC1CN2Cc1ccccc1)CCCc1ccccc1 (single isomer, unassigned) ?
11.4

Would you kindly repeat that for COc1nc2ccc(Br)cc2cc1C(c1ccccc1)C(O)(CCCCN1CCCNCC1)c1ccc2ccccc2c1 (single isomer, unassigned) ?
2

Would you kindly repeat that for COc1nc2ccc(Br)cc2cc1C(c1ccccc1)C(O)(CCCCNC1CC2CCC1C2)c1ccc2ccccc2c1 (single isomer, unassigned) [Compound 38] ?
10.3

Would you kindly repeat that for COc1nc2ccc(Br)cc2cc1C(c1ccccc1)C(O)(CCCCN(C)CCc1ccccn1)c1ccccc1 (stereo not drawn) ?
2

Would you kindly repeat that for COc1nc2ccc(Br)cc2cc1C(c1ccccc1)C(O)(CCCCNC1CC2CCC1C2)c1ccc2ccccc2c1 (stereo not drawn) [Compound 39] ?
1.8

Would you kindly repeat that for COc1nc2ccc(Br)cc2cc1C(c1ccccc1)C(O)(CCCCN1CC2CC1CN2CC(C)C)c1ccc2ccccc2c1 (single isomer, unassigned) [Compound 53] ?
2.2

Would you kindly repeat that for COc1nc2ccc(Br)cc2cc1C(c1ccccc1)C(O)(CCCCNC1CC2CCC1C2)c1ccccc1 (stereo not drawn) ?
1.9

Would you kindly repeat that for COc1nc2ccc(Br)cc2cc1C(c1ccccc1)C(O)(CCCCN1CC2CC1CN2C1CCN(C)CC1)c1ccc2ccccc2c1 (single isomer, unassigned) ?
2.3

Would you kindly repeat that for COc1nc2ccccc2cc1C(c1ccccc1)C(O)(CCCCN1CC2CC1CN2)c1ccc2ccccc2c1 (single isomer, unassigned) ?
1.8

Would you kindly repeat that for COc1nc2ccc(Br)cc2cc1C(c1ccccc1)C(O)(CCCCN1CCCNCC1)c1ccccc1 (single isomer, unassigned) ?
1.9

Would you kindly repeat that for COc1nc2ccc(Br)cc2cc1C(c1ccccc1)C(O)(CCCCN(C)C1CCN(C)CC1)c1ccccc1 (single isomer, unassigned) ?
9.8

Would you kindly repeat that for COc1nc2ccc(Br)cc2cc1C(c1ccccc1)C(O)(CCCCCN1CCCN(C)CC1)c1ccc2ccccc2c1 (single isomer, unassigned) ?
2.1

Would you kindly repeat that for COc1nc2ccc(Br)cc2cc1C(c1ccccc1)C(O)(CCCCN1CC2CC1CN2CC(C)C)c1ccc2ccccc2c1 (stereo not drawn) [Compound 52] ?
2.2

Would you kindly repeat that for COc1nc2ccc(Br)cc2cc1C(c1ccccc1)C(O)(CCCCN(C)CCN(C)C)c1ccccc1 (single isomer, unassigned) ?
9.4

Would you kindly repeat that for COc1ccc(N2CCN(CCCCC(O)(c3ccc4ccccc4c3)C(c3ccccc3)c3cc4cc(Br)ccc4nc3OC)CC2)cc1 (single isomer, unassigned) ?
18.4

Would you kindly repeat that for COc1nc2ccc(Br)cc2cc1C(c1ccccc1)C(O)(CCCCN1CC2CC1CN2C)c1ccc2ccccc2c1 (single isomer, unassigned) ?
2.3

Would you kindly repeat that for COc1nc2ccc(Br)cc2cc1C(c1ccccc1)C(O)(CCCCN1CCCN(C)CC1)c1ccc2ccccc2c1 (stereo not drawn) [Compound 34b] ?
2.1
